Listed here: items and their measured Var.EC50/HuIgG1 EC50.
Target: T1, human CD11a (human, UniProt P20701 26-1170)
T1 construct: whole, on cells; On Jurkat T-cells or human peripheral blood mononuclear cells, as part of LFA-1; also called CD11a on Jurkat cells; alpha subunit of LFA-1
T1 sequence (P20701 26-1170): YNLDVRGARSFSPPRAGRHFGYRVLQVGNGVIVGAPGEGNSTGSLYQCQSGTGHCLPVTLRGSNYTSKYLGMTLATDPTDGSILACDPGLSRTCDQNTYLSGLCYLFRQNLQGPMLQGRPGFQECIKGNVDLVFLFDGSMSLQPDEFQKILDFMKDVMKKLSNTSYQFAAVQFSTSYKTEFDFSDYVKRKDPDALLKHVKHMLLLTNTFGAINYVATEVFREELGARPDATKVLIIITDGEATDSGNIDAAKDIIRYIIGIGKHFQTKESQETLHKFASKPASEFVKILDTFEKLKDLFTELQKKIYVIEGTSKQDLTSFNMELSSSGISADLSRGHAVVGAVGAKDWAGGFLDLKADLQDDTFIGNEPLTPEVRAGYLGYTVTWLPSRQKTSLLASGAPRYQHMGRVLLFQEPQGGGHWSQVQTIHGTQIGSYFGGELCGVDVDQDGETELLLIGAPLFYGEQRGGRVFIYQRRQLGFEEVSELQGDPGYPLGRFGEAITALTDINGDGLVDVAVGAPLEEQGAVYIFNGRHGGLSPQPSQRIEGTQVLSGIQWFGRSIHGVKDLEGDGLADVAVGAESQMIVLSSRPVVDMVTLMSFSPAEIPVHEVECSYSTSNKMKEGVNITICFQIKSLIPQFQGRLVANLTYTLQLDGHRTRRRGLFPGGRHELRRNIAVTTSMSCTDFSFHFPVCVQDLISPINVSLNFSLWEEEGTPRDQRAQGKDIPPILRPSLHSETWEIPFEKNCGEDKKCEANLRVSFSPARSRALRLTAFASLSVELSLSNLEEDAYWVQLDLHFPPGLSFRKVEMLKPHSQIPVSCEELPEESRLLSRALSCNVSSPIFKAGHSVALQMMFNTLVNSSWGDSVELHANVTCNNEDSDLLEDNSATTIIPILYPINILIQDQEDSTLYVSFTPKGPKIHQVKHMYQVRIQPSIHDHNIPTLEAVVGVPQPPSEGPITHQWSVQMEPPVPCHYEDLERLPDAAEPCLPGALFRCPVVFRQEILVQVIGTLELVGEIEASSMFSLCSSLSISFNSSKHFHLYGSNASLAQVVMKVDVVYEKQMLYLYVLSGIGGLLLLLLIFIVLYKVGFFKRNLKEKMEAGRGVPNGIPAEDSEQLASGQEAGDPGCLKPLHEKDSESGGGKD
Assay: FACScan, Jurkat cells
Kindly provide the numeric value in ratio only, without the unit symbol.

Known results for binders:
binder | u | Var.EC50/HuIgG1 EC50
HuIgG1 mutant L2 (antibody, V domains shown, HuIgG1 mutant, human IgG1; Kabat numbering) VH: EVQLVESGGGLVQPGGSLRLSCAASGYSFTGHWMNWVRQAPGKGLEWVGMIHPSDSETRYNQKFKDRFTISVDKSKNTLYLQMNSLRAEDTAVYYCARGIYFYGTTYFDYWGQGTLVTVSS VL: DIQMTQSPSSLSASVGDRVTITCRASKTISKYLAWYQQKPGKAPKLLIYAGAALQSGVPSRFSGSGSGTDFTLTISSLQPEDFATYYCQQHNEYPLTFGQGTKVEIKR | ratio | 1.1
HuIgG1 mutant SerH28Ala (antibody, V domains shown, HuIgG1 mutant, human IgG1; Kabat numbering) VH: EVQLVESGGGLVQPGGSLRLSCAASGYAFTGHWMNWVRQAPGKGLEWVGMIHPSDSETRYNQKFKDRFTISVDKSKNTLYLQMNSLRAEDTAVYYCARGIYFYGTTYFDYWGQGTLVTVSS VL: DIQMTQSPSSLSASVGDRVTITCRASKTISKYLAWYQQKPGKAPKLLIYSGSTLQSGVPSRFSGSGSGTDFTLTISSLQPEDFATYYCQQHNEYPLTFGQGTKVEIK | ratio | 6.9
HuIgG1 mutant GluH56Ala (antibody, V domains shown, HuIgG1 mutant, human IgG1; Kabat numbering) VH: EVQLVESGGGLVQPGGSLRLSCAASGYSFTGHWMNWVRQAPGKGLEWVGMIHPSDSATRYNQKFKDRFTISVDKSKNTLYLQMNSLRAEDTAVYYCARGIYFYGTTYFDYWGQGTLVTVSS VL: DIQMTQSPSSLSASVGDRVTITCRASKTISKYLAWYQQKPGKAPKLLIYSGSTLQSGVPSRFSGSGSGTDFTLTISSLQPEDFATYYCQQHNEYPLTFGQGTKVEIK | ratio | 4

// switching to the query binder
Given the entry HuIgG1 mutant H1 (antibody, V domains shown, HuIgG1 mutant, human IgG1; Kabat numbering) VH: EVQLVESGGGLVQPGGSLRLSCAASGYAFAGAWMNWVRQAPGKGLEWVGMIHPSDSETRYNQKFKDRFTISVDKSKNTLYLQMNSLRAEDTAVYYCARGIYFYGTTYFDYWGQGTLVTVSS VL: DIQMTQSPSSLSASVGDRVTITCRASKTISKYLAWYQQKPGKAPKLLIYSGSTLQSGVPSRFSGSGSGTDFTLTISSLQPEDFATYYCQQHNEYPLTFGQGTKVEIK , report its measured Var.EC50/HuIgG1 EC50.
5.9

The reported measurements were obtained from patent US20040146507A1.
